Value source: paper PMC4376724

# Tested on: PBMC from HLA-A*02:01 Chagas disease patients and healthy donors
# assay-protocol: Cytokine secretion test (Bio-Plex multiplex immunoassay) in PBMC supernatants
# Assay type: cell-based, human
# test-settings: PBMC of patient IND 917; 1 μM peptide, 30 h; non-peptide control subtracted
I'd appreciate it if you could supply IFNγ values for the items below.
Give bare numbers, in pg/mL.

Worked set:
seq-text: ALQVTNHRYL [TcCA-2_657-666]
observed-property: IFNγ
unit-abbreviation: pg/mL
val: -1

seq-text: TVFDASRSTV [TcCA-2_442-451]
observed-property: IFNγ
unit-abbreviation: pg/mL
val: -1

Parameters: items (list). Returns: IFNγ for each item.
1. AAAGDKLSL [TcCA-2_273-281]
2. ALRNLRVFL [TcCA-2_607-615]

7
1

###

# Test system: PBMC from HLA-A*02:01 Chagas disease patients and healthy donors
# assay-protocol: Granzyme B ELISPOT in PBMC
# Format: cell-based, human
# test-settings: PBMC of subject HD 664, 1 μM peptide, 30 h, non-peptide control spots subtracted
Task for the reader: assign each of the following sequences its reported GzB.
Give bare numbers, in SFC/10^6.

seq-text: ALQVTNHRYL [TcCA-2_657-666]
unit-abbreviation: SFC/10^6
val: 0

Required: GzB, one value per sequence below.
1. TVFDASRSTV [TcCA-2_442-451]
2. AAAGDKLSL [TcCA-2_273-281]
3. ALRNLRVFL [TcCA-2_607-615]

[1, 0, 0]

###

# Tested on: PBMC from HLA-A*02:01 Chagas disease patients and healthy donors
# assay-protocol: Cytokine secretion test (Bio-Plex multiplex immunoassay) in PBMC supernatants
# Type: cell-based, human
# test-settings: PBMC of patient CCC III 509; 1 μM peptide, 30 h; non-peptide control subtracted
Task for the reader: assign each of the following sequences its reported TNFα.
One number for each entry, in pg/mL.

Below: 3 sequences and their reported TNFα.
seq-text: AAAGDKLSL [TcCA-2_273-281]
unit-abbreviation: pg/mL
TNFα: -5
--
seq-text: TVFDASRSTV [TcCA-2_442-451]
unit-abbreviation: pg/mL
TNFα: -5
--
seq-text: ALQVTNHRYL [TcCA-2_657-666]
unit-abbreviation: pg/mL
TNFα: -5

Next, consider the following sequence.
Lookup: TNFα / PBMC from HLA-A*02:01 Chagas disease patients and healthy donors / ALRNLRVFL [TcCA-2_607-615]
-4

###

# study-system: HLA-A*02:01 (Homo sapiens, UniProt P04439, D140Y/D185E/D98H/E176V/E277Q/G131W/G231S/I119V/I121R/I166T/I218V/L300P/L318F/N151K/N90K/P208A/P217A/Q86G/Q94H/R138H/R169H/T345S)
# assay-protocol: HLA-A*02:01 binding assay (surface stabilization on TAP-deficient T2 cells)
# test-settings: different peptide concentrations in duplicate, serum-free RPMI, overnight at room temperature, PE anti-HLA-A2 (BB7.2) flow cytometry, referred to 25 μM HB-ENV335-343 peptide
observed-property: % maximal stabilization (%)
Give bare numbers, in %.

Consider the worked cases shown below.
seq-text: TVFDASRSTV [TcCA-2_442-451]
% maximal stabilization, %: 24.44
--
seq-text: ALQVTNHRYL [TcCA-2_657-666]
% maximal stabilization, %: 21.49

Record % maximal stabilization for all entries; do not skip any.
1. AAAGDKLSL [TcCA-2_273-281]
2. ALRNLRVFL [TcCA-2_607-615]
3. FANAPGVAQV [TcCA-2_452-461]

1: 12.41; 2: 29.54; 3: 46.23
